tested_system: acetylcholine receptor
experimental_protocol: SPR, receptor immobilised on chip, peptide at 10 uM
recorded_endpoint: Binding affinity (RU)

RASVKR [6mer-2-925]
23

(a) KESVKK [6mer-2-953]
(b) RFNPRK [6mer-2-927]
(c) RFSAKK [6mer-2-900]
Q. Order field: Binding affinity (RU) | Direction: descending (largest first) Form field (ranking): labels in requested order.
A. b, a, c

The reported measurements were obtained from patent US20250011363A1.
